tested on: rodent lifetime carcinogenesis bioassay, tumor incidence TD50; test: carcinogenic potency in animals, long-term in vivo studies, CPDB compilation (AID 1745844); settings: rat; strain Colworth (Wistar derived); females; in drinking water; site: liver; lesion: hepatocellular tumor; dosed 176 weeks; study length 176 weeks
measured metric: TD50

// output TD50; input CN(C)N=O ; system rodent lifetime carcinogenesis bioassay, tumor incidence TD50
0.145 mg/kg/day

###

system: rodent lifetime carcinogenesis bioassay, tumor incidence TD50; test: carcinogenic potency in animals, long-term in vivo studies, CPDB compilation (AID 1745844); details: rat; strain Fischer 344; males; in feed; site: liver; lesion: cholangiocarcinoma; dosed 110 weeks; study length 133 weeks
measured metric: TD50 (mg/kg/day)
The figure you give is taken to be in mg/kg/day; do not add the unit.

Note down TD50 recorded for CN(C)CCN(Cc1cccs1)c1ccccn1
400
